Target: T1, RAGE-Fc chimera protein (BioTechne, 1145-RG) (UniProt Q15109 24-344)
T1 construct: Bought reagent; also called Fc-RAGE; not shown: CH domain of IgG (Fc)
T1 sequence (Q15109 24-344, change not shown): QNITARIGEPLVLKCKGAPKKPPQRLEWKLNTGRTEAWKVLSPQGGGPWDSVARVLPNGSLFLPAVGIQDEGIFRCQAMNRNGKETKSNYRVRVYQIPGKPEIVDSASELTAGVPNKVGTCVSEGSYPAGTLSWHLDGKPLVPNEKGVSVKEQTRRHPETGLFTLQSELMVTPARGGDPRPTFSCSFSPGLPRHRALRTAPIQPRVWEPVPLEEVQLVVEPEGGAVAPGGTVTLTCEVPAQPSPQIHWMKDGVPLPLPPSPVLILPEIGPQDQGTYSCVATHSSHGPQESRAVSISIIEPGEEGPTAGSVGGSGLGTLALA
Assay: BLI: RAGE-Fc on AHC sensors, HMGB1 construct 0-25 µM in solution; saturation fit
Could you please report measured Kd for the items listed next?
Respond with the bare value in nM.

Value lookup for Kd; key = non-oxidizable 3S-HMGB1, full-length (1-214) (ligand, Biotinylated (c022) in BLI with CXCL12, His6-tagged in the reverse peptide array; also called 3S-FL HMGB1 (c022)) GKGDPKKPRGKMSSYAFFVQTSREEHKKKHPDASVNFSEFSKKSSERWKTMSAKEKGKFEDMAKADKARYEREMKTYIPPKGETKKKFKDPNAPKRPPSAFFLFSSEYRPKIKGEHPGLSIGDVAKKLGEMWNNTAADDKQPYEKKAAKLKEKYEKDIAAYRAKGKPDAAKKGVVKAEKSKKKKEEEEDEEDEEDEEEEEDEEDEDEEEDDDDE
3000

Value lookup for Kd; key = DS Box A 1-88 (full HMG Box construct with flanking regions) (ligand, oxidized (disulfide Cys 22-Cys 44), also called oxidized Box A alone) GKGDPKKPRGKMSSYAFFVQTCREEHKKKHPDASVNFSEFSKKCSERWKTMSAKEKGKFEDMAKADKARYEREMKTYIPPKGETKKKF
53400

Value lookup for Kd; key = fully-reduced HMGB1, full-length (1-214) (ligand, cysteines reduced (Cys 22, Cys 44, Cys 105), Tags differ by assay: biotinylated (c011) in BLI with CXCL12, His6-tagged in the reverse peptide array, TEV-cleaved in the RAGE ELISA and BLI; also called FR-HMGB1; FR FL-HMGB1 (c011)) GKGDPKKPRGKMSSYAFFVQTCREEHKKKHPDASVNFSEFSKKCSERWKTMSAKEKGKFEDMAKADKARYEREMKTYIPPKGETKKKFKDPNAPKRPPSAFFLFCSEYRPKIKGEHPGLSIGDVAKKLGEMWNNTAADDKQPYEKKAAKLKEKYEKDIAAYRAKGKPDAAKKGVVKAEKSKKKKEEEEDEEDEEDEEEEEDEEDEDEEEDDDDE
2300

Value lookup for Kd; key = dBB12L (double Box B HMGB1 construct with 12-residue linker) (ligand, also called dBB12L-HMGB1; dBB-HMGB1) KDPNAPKRPPSAFFLFCSEYRPKIKGEHPGLSIGDVAKKLGEMWNNTAADDKQPYEKKAAKLKEKYEKDIAAYRAKGKPDAAKKGVKDPNAPKRPPSAFFLFCSEYRPKIKGEHPGLSIGDVAKKLGEMWNNTAADDKQPYEKKAAKLKEKYEKDIAAYRAKGKPDAAKKGV
5500

Value lookup for Kd; key = DS-HMGB1 1-184 (ligand, oxidized Box A (disulfide Cys 22-Cys 44)) GKGDPKKPRGKMSSYAFFVQTCREEHKKKHPDASVNFSEFSKKCSERWKTMSAKEKGKFEDMAKADKARYEREMKTYIPPKGETKKKFKDPNAPKRPPSAFFLFCSEYRPKIKGEHPGLSIGDVAKKLGEMWNNTAADDKQPYEKKAAKLKEKYEKDIAAYRAKGKPDAAKKGVVKAEKSKKKK
500

Value lookup for Kd; key = DS-HMGB1 1-164 (ligand, oxidized Box A (disulfide Cys 22-Cys 44)) GKGDPKKPRGKMSSYAFFVQTCREEHKKKHPDASVNFSEFSKKCSERWKTMSAKEKGKFEDMAKADKARYEREMKTYIPPKGETKKKFKDPNAPKRPPSAFFLFCSEYRPKIKGEHPGLSIGDVAKKLGEMWNNTAADDKQPYEKKAAKLKEKYEKDIAAYRAK
3100

Value lookup for Kd; key = disulfide HMGB1, full-length (ligand, disulfide bond between Cys 22 and Cys 44, also called DS-HMGB1; FL-DS-HMGB1) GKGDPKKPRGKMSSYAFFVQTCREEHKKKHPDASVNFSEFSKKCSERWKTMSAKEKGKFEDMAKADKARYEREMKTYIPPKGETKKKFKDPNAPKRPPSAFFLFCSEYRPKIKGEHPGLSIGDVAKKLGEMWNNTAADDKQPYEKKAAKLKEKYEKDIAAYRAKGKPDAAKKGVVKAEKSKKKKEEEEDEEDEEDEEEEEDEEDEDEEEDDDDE
1300
